# credit: patent US6639111B2

Test Summary: Converting into carboxylic acid in the living body: concentration in blood plasma of rat (LC/MS/MS)
Type: in vivo, SD-strain male rat
Test Conditions: male, SD, plasma; after Example 1(1) 1 mg/kg intravenous to rat; parent alcohol and the carboxylic acid formed from it; read-out: Concentration in blood plasma AUC0-∞
Readout Kind: AUC(0-inf) (ng·h/mL)
Could you give me the number in ng·h/mL? Just the number is fine.

Param item = COCc1cccc(C[C@H](O)/C=C/[C@H]2[C@H](O)CC(=O)[C@@H]2CCSCCCCO)c1 [Example 1(1)] ; retrieve measured AUC(0-inf).
462
